Every entry's value here was drawn from ChEMBL document CHEMBL6083181.

Assay: Oral bioavailability in Sprague-Dawley rat at 10 mg/kg by LC-MS analysis
Assay type: ADME, organism-based
Settings: in vivo
measurementLabel: bioavailability (%)
The figure you give is taken to be in %; do not add the unit.

Query (compound): CC1(N)CCN(c2cnc3c(Sc4ccncc4Cl)n[nH]c3n2)CC1 ; field requested: bioavailability
42.5

---

Experiment: Oral bioavailability in human
Format: ADME, organism-based
Conditions: in vivo
measurementLabel: bioavailability (%)
Express the result in % but write the number alone.

Value lookup for bioavailability; key = CC1(N)CCN(c2cnc(-c3cccc(Cl)c3Cl)c(N)n2)CC1
46
